Target: ITK (Homo sapiens)
Construct: purchased Invitrogen PV3875
Sequence (Q08881 1-620): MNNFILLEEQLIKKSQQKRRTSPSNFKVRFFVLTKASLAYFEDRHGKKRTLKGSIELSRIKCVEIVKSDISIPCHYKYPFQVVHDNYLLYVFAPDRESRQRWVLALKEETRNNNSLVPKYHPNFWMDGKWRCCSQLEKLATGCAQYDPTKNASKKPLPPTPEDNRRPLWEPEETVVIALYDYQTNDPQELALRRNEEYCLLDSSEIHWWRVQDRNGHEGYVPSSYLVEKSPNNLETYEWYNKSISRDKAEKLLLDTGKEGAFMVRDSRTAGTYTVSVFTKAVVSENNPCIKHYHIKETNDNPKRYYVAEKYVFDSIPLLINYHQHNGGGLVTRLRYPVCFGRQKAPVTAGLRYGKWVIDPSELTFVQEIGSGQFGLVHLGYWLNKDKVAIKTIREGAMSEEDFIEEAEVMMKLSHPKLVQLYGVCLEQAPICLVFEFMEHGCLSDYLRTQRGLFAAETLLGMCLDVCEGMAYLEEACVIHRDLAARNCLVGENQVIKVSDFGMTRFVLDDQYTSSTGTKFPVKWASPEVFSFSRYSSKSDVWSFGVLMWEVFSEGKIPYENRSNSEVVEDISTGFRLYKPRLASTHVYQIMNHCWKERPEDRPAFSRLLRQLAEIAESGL
Assay: ITK enzyme assay (Caliper or LCMS peptide phosphorylation)
Type: biochemical
Settings: purified ITK (Invitrogen PV3875), 20 μM ATP, Ki by Morrison's quadratic equation
Below, each entry is listed with its recorded pKi.
Scale: negative log10 of molar concentration, which is what pKi denotes.

Before answering, review these 3 worked examples.
CN(C)CCC(c1ccccc1)n1cc(NC(=O)c2n[nH]c3c2CC2CC2C3)cn1 (single isomer, unassigned) [Example 28b] ... 8.22
CN(C)CCC(c1ccccc1)n1cc(NC(=O)c2n[nH]c3c2CCC2(COC2)C3)cn1 (single isomer, unassigned) [Example 15a] ... 7.96
CC1CC(C(c2ccccc2)n2cc(NC(=O)c3n[nH]c4c3CCC(C)(C)C4)cn2)CCS1(=O)=O (single isomer, unassigned) [Example 139h] ... 7.92

# input for lookup
Task: Item CN(C)CCC(c1ccccc1)n1cc(NC(=O)c2n[nH]c3c2CC2CC2C3)cn1 (single isomer, unassigned) [Example 28a] has what recorded pKi?
Output: 7.80
